System: HepG2
Assay: cytotoxicity call (relative viability < 0.9)
Settings: 10 µM
In all, about 39,000 compounds went through this assay and about 3,300 (8.5%) were called active. The entries come from a sample that favours actives as a whole.
Labels: Yes for active, No for inactive

> print(dat)
                                    molecule  qualitative.label
 1  C[C@@H]1CN([C@H](C)CO)C(=O)Cc2cc(NC(=O)Nc3ccc(F)cc3)ccc2O[C@@H]1CN(C)Cc1ccc(Cl)c(Cl)c1                Yes
 2  C/C=C/c1ccc2c(c1)O[C@H](CN(C)S(=O)(=O)c1ccccc1OC)[C@@H](C)CN([C@H](C)CO)S2(=O)=O                 No
 3  CCOC(=O)C(CCc1ccccc1)NC1CCc2ccccc2N(CC(=O)O)C1=O.Cl (stereo unspecified)                 No
 4                     O=c1[nH]c(=S)[nH]nc1O                 No
 5  CCNC(=O)[C@@H]1[C@@H](CO)[C@@H]2Cn3c(ccc(C4=CCCC4)c3=O)[C@H]1N2S(=O)(=O)c1cn(C)cn1                 No
 6  C[C@@H]1CN([C@@H](C)CO)C(=O)c2cccc(NS(=O)(=O)c3ccc(F)cc3)c2O[C@@H]1CN(C)S(=O)(=O)c1cccs1                 No
 7  C[C@@H]1CN([C@H](C)CO)C(=O)c2cccc(NS(C)(=O)=O)c2O[C@@H]1CN(C)Cc1ccc(C(=O)Nc2ccccc2N)cc1                 No
 8  C[C@@H]1CN([C@@H](C)CO)S(=O)(=O)c2ccc(C#CC(C)(C)O)cc2O[C@@H]1CN(C)C(=O)C1CCCCC1                 No
 9  C[C@H]1CN([C@@H](C)CO)C(=O)c2cc(NC(=O)Cn3cnnn3)ccc2O[C@H]1CN(C)Cc1ccc(C(=O)O)cc1                 No
10  CC(CN(C)C)CN1c2ccccc2CCc2ccccc21.O=C(O)C=CC(=O)O (stereo unspecified)                Yes
11  CC(C)(C)[S@@](=O)N1Cc2cc(C(=O)N[C@H]3CCN(Cc4ccccc4)C3)nc(-c3cccc(-c4cccnc4)c3)c2[C@H]1CCO                 No
12  Cc1ccc(S(=O)(=O)Nc2ccc3c(c2)C(=O)N([C@@H](C)CO)C[C@@H](C)[C@@H](CN(C)CC2CC2)O3)cc1                 No
13  C[C@@H]1CCCCO[C@@H](CN(C)C(=O)Nc2ccc3c(c2)OCO3)[C@H](C)CN([C@H](C)CO)C(=O)c2cc(NS(=O)(=O)c3ccccc3)ccc2O1                 No
14               CN(C)c1nc(NCCO)c2cnn(C)c2n1                 No
15  C[C@H]1CN([C@@H](C)CO)C(=O)c2cccc(NC(=O)Nc3ccc4c(c3)OCO4)c2O[C@@H]1CN(C)S(=O)(=O)c1cn(C)cn1                 No
16        O=C(c1ccccc1F)N1c2ccccc2Sc2ccccc21                 No
